Reference for the values: the Deep4Chem optical property database

Hi there, I'd appreciate the recorded emission maximum for every entry that follows.
- TEST DETAILS: solvent given as SMILES
- STUDY CONDITIONS: in CC#N
Kindly answer with a numeric value in nm, unit omitted.

Record `CN(CCO)c1ccc(/C=C/C2=CC(=C(C#N)C#N)CC(C)(C)C2)cc1` , field emission maximum: 651

Record `CC1(C)CC(=O)c2cc(F)cc(F)c2N1` , field emission maximum: 455

Record `COc1ccc(-n2nc(C#N)c(N3CCCC3)n2)cc1` , field emission maximum: 418

Record `CC[n+]1ccc(/C=C/c2cc(OC)c(C=O)cc2OC)cc1` , field emission maximum: 566

Record `COc1c2ccccc2c(OC)c2c1c1cccc(OC)c1n2C` , field emission maximum: 433

Record `O=C(N/N=C/c1ccccc1O)c1cccc2ccccc12` , field emission maximum: 376
